These measurements were taken from paper PMC11763264.

Item-by-item account of MIC
- Tested on: C. parapsilosis (ATCC 22019)
- TEST_DETAILS: microbe, parasite or virus in culture
- Type: cell-based, Candida parapsilosis
- EXPERIMENTAL_PARAMETERS: ATCC 22019, 24 h
Non-standard residues stand in square brackets, D forms with d. Residues, ends and D or L forms follow the SMILES beside them. Dip = N[C@H](C(=O)O)C(c1ccccc1)c1ccccc1
REPORTED_PROPERTY: MIC (µM)

[[record]]
compound = "N=C(N)NCCC[C@@H]1NC(=O)[C@H](Cc2c[nH]c3ccccc23)NC(=O)[C@H](CCCNC(=N)N)NC(=O)[C@H](Cc2c[nH]c3ccccc23)NC(=O)[C@H](CCCNC(=N)N)NC(=O)[C@H](C(c2ccccc2)c2ccccc2)NC(=O)[C@H](CCCNC(=N)N)NC(=O)[C@H](Cc2c[nH]c3ccccc23)NC(=O)[C@H](CCCNC(=N)N)NC(=O)[C@H](Cc2c[nH]c3ccccc23)NC1=O [[(DipR)(WR)4]] (cyclo([Dip]RWRWRWRWR))"
result_unit = "µM"
observed_value = 7.1

[[record]]
compound = "N=C(N)NCCC[C@@H]1NC(=O)[C@H](Cc2c[nH]c3ccccc23)NC(=O)[C@H](CCCNC(=N)N)NC(=O)[C@H](C(c2ccccc2)c2ccccc2)NC(=O)[C@H](CCCNC(=N)N)NC(=O)[C@H](C(c2ccccc2)c2ccccc2)NC(=O)[C@H](CCCNC(=N)N)NC(=O)[C@H](C(c2ccccc2)c2ccccc2)NC(=O)[C@H](CCCNC(=N)N)NC(=O)[C@H](C(c2ccccc2)c2ccccc2)NC1=O [[(DipR)4(WR)]] (cyclo([Dip]R[Dip]R[Dip]R[Dip]RWR))"
result_unit = "µM"
observed_value = 6.7

[[record]]
compound = "N=C(N)NCCC[C@H](NC(=O)[C@@H](NC(=O)[C@H](CCCNC(=N)N)NC(=O)[C@@H](NC(=O)[C@H](CCCNC(=N)N)NC(=O)[C@@H](NC(=O)[C@H](CCCNC(=N)N)NC(=O)[C@@H](NC(=O)[C@H](CCCNC(=N)N)NC(=O)[C@@H](N)Cc1c[nH]c2ccccc12)C(c1ccccc1)c1ccccc1)C(c1ccccc1)c1ccccc1)C(c1ccccc1)c1ccccc1)C(c1ccccc1)c1ccccc1)C(=O)O [((DipR)4(WR))] (H-WR[Dip]R[Dip]R[Dip]R[Dip]R-OH)"
result_unit = "µM"
observed_value = 6.6


====

- Test system: C. parapsilosis (ATCC 22019)
- TEST_DETAILS: microbe, parasite or virus in culture
- Assay type: cell-based, Candida parapsilosis
- EXPERIMENTAL_PARAMETERS: ATCC 22019, 24 h
Non-standard residues stand in square brackets, D forms with d. Residues, ends and D or L forms follow the SMILES beside them. Dip = N[C@H](C(=O)O)C(c1ccccc1)c1ccccc1
REPORTED_PROPERTY: MIC (µM)

[[record]]
molecule = "N=C(N)NCCC[C@H](NC(=O)[C@@H](NC(=O)[C@H](CCCNC(=N)N)NC(=O)[C@@H](NC(=O)[C@H](CCCNC(=N)N)NC(=O)[C@@H](NC(=O)[C@H](CCCNC(=N)N)NC(=O)[C@H](Cc1c[nH]c2ccccc12)NC(=O)[C@H](CCCNC(=N)N)NC(=O)[C@@H](N)Cc1c[nH]c2ccccc12)C(c1ccccc1)c1ccccc1)C(c1ccccc1)c1ccccc1)C(c1ccccc1)c1ccccc1)C(=O)O [((DipR)3(WR)2)] (H-WRWR[Dip]R[Dip]R[Dip]R-OH)"
observed_value = 6.8

[[record]]
molecule = "N=C(N)NCCC[C@H](NC(=O)[C@@H](NC(=O)[C@H](CCCNC(=N)N)NC(=O)[C@@H](NC(=O)[C@H](CCCNC(=N)N)NC(=O)[C@H](Cc1c[nH]c2ccccc12)NC(=O)[C@H](CCCNC(=N)N)NC(=O)[C@H](Cc1c[nH]c2ccccc12)NC(=O)[C@H](CCCNC(=N)N)NC(=O)[C@@H](N)Cc1c[nH]c2ccccc12)C(c1ccccc1)c1ccccc1)C(c1ccccc1)c1ccccc1)C(=O)O [((DipR)2(WR)3)] (H-WRWRWR[Dip]R[Dip]R-OH)"
observed_value = 6.9

[[record]]
molecule = "N=C(N)NCCC[C@@H]1NC(=O)[C@H](C(c2ccccc2)c2ccccc2)NC(=O)[C@H](CCCNC(=N)N)NC(=O)[C@H](C(c2ccccc2)c2ccccc2)NC(=O)[C@H](CCCNC(=N)N)NC(=O)[C@H](C(c2ccccc2)c2ccccc2)NC(=O)[C@H](CCCNC(=N)N)NC(=O)[C@H](C(c2ccccc2)c2ccccc2)NC(=O)[C@H](CCCNC(=N)N)NC(=O)[C@H](C(c2ccccc2)c2ccccc2)NC1=O [[DipR]5] (cyclo([Dip]R[Dip]R[Dip]R[Dip]R[Dip]R))"
observed_value = 6.6

[[record]]
molecule = "N=C(N)NCCC[C@@H]1NC(=O)[C@H](Cc2c[nH]c3ccccc23)NC(=O)[C@H](CCCNC(=N)N)NC(=O)[C@H](C(c2ccccc2)c2ccccc2)NC(=O)[C@H](CCCNC(=N)N)NC(=O)[C@H](C(c2ccccc2)c2ccccc2)NC(=O)[C@H](CCCNC(=N)N)NC(=O)[C@H](C(c2ccccc2)c2ccccc2)NC(=O)[C@H](CCCNC(=N)N)NC(=O)[C@H](Cc2c[nH]c3ccccc23)NC1=O [[(DipR)3(WR)2]] (cyclo([Dip]R[Dip]R[Dip]RWRWR))"
observed_value = 6.8

[[record]]
molecule = "N=C(N)NCCC[C@H](NC(=O)[C@@H](NC(=O)[C@H](CCCNC(=N)N)NC(=O)[C@H](Cc1c[nH]c2ccccc12)NC(=O)[C@H](CCCNC(=N)N)NC(=O)[C@H](Cc1c[nH]c2ccccc12)NC(=O)[C@H](CCCNC(=N)N)NC(=O)[C@H](Cc1c[nH]c2ccccc12)NC(=O)[C@H](CCCNC(=N)N)NC(=O)[C@@H](N)Cc1c[nH]c2ccccc12)C(c1ccccc1)c1ccccc1)C(=O)O [((DipR)(WR)4)] (H-WRWRWRWR[Dip]R-OH)"
observed_value = 14.1

[[record]]
molecule = "N=C(N)NCCC[C@H](NC(=O)[C@H](CCCNC(=N)N)NC(=O)[C@@H](NC(=O)[C@H](CCCNC(=N)N)NC(=O)[C@@H](NC(=O)[C@H](CCCNC(=N)N)NC(=O)[C@@H](NC(=O)[C@H](CCCNC(=N)N)NC(=O)[C@@H](N)C(c1ccccc1)c1ccccc1)C(c1ccccc1)c1ccccc1)C(c1ccccc1)c1ccccc1)C(c1ccccc1)c1ccccc1)C(=O)O [(DipR)4R] (H-[Dip]R[Dip]R[Dip]R[Dip]RR-OH)"
observed_value = 7.4

[[record]]
molecule = "N=C(N)NCCC[C@@H]1NC(=O)[C@H](Cc2c[nH]c3ccccc23)NC(=O)[C@H](CCCNC(=N)N)NC(=O)[C@H](Cc2c[nH]c3ccccc23)NC(=O)[C@H](CCCNC(=N)N)NC(=O)[C@H](C(c2ccccc2)c2ccccc2)NC(=O)[C@H](CCCNC(=N)N)NC(=O)[C@H](C(c2ccccc2)c2ccccc2)NC(=O)[C@H](CCCNC(=N)N)NC(=O)[C@H](Cc2c[nH]c3ccccc23)NC1=O [[(DipR)2(WR)3]] (cyclo([Dip]R[Dip]RWRWRWR))"
observed_value = 7.0

